Compiled record: pIC50 values for UniProt:Q02750 across several sources.
pIC50: −log10 of the molar value.

Solved entries:
Cc1cc(Br)ccc1Nc1cnccc1C(=O)O : > 6.00
N#Cc1ccc(C(=O)O)c(Nc2ccc(I)cc2F)c1 : 5.82 to 6.82
C#Cc1ccc(Nc2c(C(=O)NOCCO)cc(/C=N/OCC(O)CO)c(F)c2F)c(F)c1 (racemic) : 6.82
O=C1CCCc2c1sc(Nc1ccc(I)cc1F)c2C(=O)NOC[C@H](O)CO : ≥ 6.82
O=C(NOCCO)c1cc(/C=N/OCc2ncc[nH]2)c(F)c(F)c1Nc1ccc(I)cc1F : 7.70
CCCONC(=O)c1ccc(C#N)cc1Nc1ccc(I)cc1F : 5.82 to 6.82

Enquiry: Request: pIC50, test system UniProt:Q02750, entry `CCON1CCc2cncc(Nc3ccc(I)cc3F)c2C1=O`
Return: 5.82 to 6.82

Enquiry: Request: pIC50, test system UniProt:Q02750, entry `NCCCn1ccc2cncc(Nc3ccc(I)cc3F)c2c1=O`
Return: 5.82 to 6.82

Enquiry: Request: pIC50, test system UniProt:Q02750, entry O=C(NOCCO)c1cc(/C=N/OCC(O)CO)c(F)c(F)c1Nc1ccc(I)cc1F (racemic)
Return: 7.48

----------
Compiled record: IC50 values for human MEK1 (Homo sapiens) across several sources.

Solved entries:
O=C(NCc1cccc(I)c1)c1ccncc1Nc1ccc(I)cc1F : < 1000 nM
NC(=O)c1c(Nc2ccc(I)cc2F)cc(F)cc1Oc1ccccc1 : < 250 nM
COc1ccc(-c2cc(C(=O)O)c(Nc3ccc(I)cc3F)cn2)cc1 : 1000 to 10000 nM

Enquiry: Request: IC50, test system human MEK1 (Homo sapiens), entry `O=C(NOCCO)c1cc(/C=N/OCCOCCO)c(F)c(F)c1Nc1ccc(I)cc1F`
Return: 107 nM

Enquiry: Request: IC50, test system human MEK1 (Homo sapiens), entry `O=C(NCCOc1ccccc1)c1ccncc1Nc1ccc(I)cc1F`
Return: < 1000 nM

Enquiry: Request: IC50, test system human MEK1 (Homo sapiens), entry `Nc1cccc(-c2ccnc3[nH]cc(C(=O)c4ccccc4F)c23)c1`
Return: ≤ 10000 nM

Enquiry: Request: IC50, test system human MEK1 (Homo sapiens), entry `O=C(O)/C=C/c1cccc(-c2ccnc3[nH]cc(C(=O)c4ccccc4F)c23)c1`
Return: ≤ 10000 nM

Enquiry: Request: IC50, test system human MEK1 (Homo sapiens), entry `O=C(NC1CCCC1)c1ccncc1Nc1ccc(I)cc1F`
Return: < 1000 nM

Enquiry: Request: IC50, test system human MEK1 (Homo sapiens), entry `Cc1cc(I)ccc1Nc1c(C(=O)NOCC#Cc2cccc(F)c2)ccc(F)c1F`
Return: 113 nM

----------
Compiled record: IC50 values for UniProt Q02750 across several sources.

Solved entries:
O=C(NOCCO)c1cc(/C=N/OCCCO)c(F)c(F)c1Nc1ccc(I)cc1F : 69 nM
O=C(NCCCn1ccnc1)c1ccncc1Nc1ccc(I)cc1F : < 1000 nM
Nc1cccc(-c2cnc3[nH]cc(C(=O)c4cc(O)ccc4F)c3c2)c1 : ≤ 10000 nM
CC(=O)NCCO/N=C/c1cc(C(=O)NOCCO)c(Nc2ccc(I)cc2F)c(F)c1F : 48 nM
Cn1c(Nc2ccc(I)cc2F)c(C(=O)NOCC(O)CO)c2c(c1=O)CCC2 (stereo not drawn) : < 500 nM
CC(C)S(=O)(=O)Nc1cccc(Oc2cc(F)cc(Nc3ccc(I)cc3F)c2C(N)=O)c1 : < 300 nM
O=C(NOC1CCCCO1)c1ccc(F)cc1Nc1ccc(I)cc1Cl (stereo not drawn) : 69 nM
NC(=O)c1c(Nc2ccc(I)cc2F)cc(F)cc1Oc1cccc(N2CCCS2(=O)=O)c1 : < 250 nM
O=C(NOCCO)c1cc(/C=N\OCC(O)CO)c(F)c(F)c1Nc1ccc(I)cc1F (stereo not drawn) : 15 nM
CCONC(=O)c1ccc(F)c(F)c1Nc1ccc(I)cc1C : 28 nM

Enquiry: Request: IC50, test system UniProt Q02750, entry `O=C(NCCCCO)c1ccncc1Nc1ccc(I)cc1F`
Return: < 1000 nM

Enquiry: Request: IC50, test system UniProt Q02750, entry `O=C(c1ccccc1F)c1c[nH]c2nccc(-c3cccnc3)c12`
Return: ≤ 10000 nM

Enquiry: Request: IC50, test system UniProt Q02750, entry O=C(NC1CCc2ccccc21)c1ccncc1Nc1ccc(I)cc1F (stereo not drawn)
Return: 1000 to 10000 nM
